- Tested on: 628569-122-R-J1-PDC complex spheroid viability;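 note: spheroids exposed to agents for seven days before readout; 100% = DMSO vehicle control viability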
- PROCEDURE SUMMARY: Anticancer human tumor 628569-122-R-J1-PDC patient-derived head and neck squamous carcinoma cell line growth inhibition [CLK]
- CONDITION CONTEXT: second compound 10 µM; first compound 0.316 µM; stronger effect = lower value
hey, just use 1 (yes) if measured viability, T/C is less than 40%, otherwise 0 (no)

{"columns": ["COMPOUND", "GROUP"],
 "data": [
  ["COc1cccc2c1C(=O)c1c(O)c3c(c(O)c1C2=O)CC(O)(C(=O)CO)CC3OC1CC(N)C(O)C(C)O1 (stereo not given) + CNC(=O)c1ccc(Nc2nc(OC3CCCC3)c3c(-c4ccc5nc(C)oc5c4)c[nH]c3n2)c(OC)c1", "0 (no)"],
  ["COc1cccc2c1C(=O)c1c(O)c3c(c(O)c1C2=O)CC(O)(C(=O)CO)CC3OC1CC(N)C(O)C(C)O1 (stereo not given) + CN1CCN(c2cc(C(=O)Nc3cc4cc(-c5cnn(C)c5)ccc4cn3)ccn2)CC1", "1 (yes)"],
  ["COc1c(OCCCN2CCOCC2)ccc2c3n(c(=NC(=O)c4cnc(N)nc4)nc12)CCN3 + CNC(=O)c1ccc(Nc2nc(OC3CCCC3)c3c(-c4ccc5nc(C)oc5c4)c[nH]c3n2)c(OC)c1", "1 (yes)"]
]}

Shifting focus to the compound that follows.
**Q:** Given CCc1c2c(nc3ccc(O)cc13)-c1cc3c(c(=O)n1C2)COC(=O)[C@]3(O)CC + CN1CCN(c2cc(C(=O)Nc3cc4cc(-c5cnn(C)c5)ccc4cn3)ccn2)CC1 , is recorded viability, T/C strictly lower than 40%?
**A:** 1 (yes)

Data credit: PubChem BioAssay AID2060611
